# measurement_target: Sigma non-opioid intracellular receptor 1 (Cavia porcellus) (UniProt Q60492)
# Sequence (Q60492 whole entry, looked up): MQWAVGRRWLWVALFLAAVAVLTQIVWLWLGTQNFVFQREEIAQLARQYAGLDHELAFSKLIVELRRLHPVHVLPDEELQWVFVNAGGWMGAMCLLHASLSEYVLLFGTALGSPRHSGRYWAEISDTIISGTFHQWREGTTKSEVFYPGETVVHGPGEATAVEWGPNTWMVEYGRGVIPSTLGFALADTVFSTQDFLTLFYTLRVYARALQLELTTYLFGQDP
# method_description: Binding affinity against sigma-1 receptor in guinea pig brain membranes using [3H](+)-pentazocine as the radioligand
quantity_name: Ki (nM)

Guide cases for Ki, answers given:
{"smiles_code": "O=C(Cc1ccc(Cl)cc1)NC1CCN(Cc2ccccc2)CC1", "measurement_unit": "nM", "Ki": 6.46}
{"smiles_code": "O=C(Cc1c(Cl)cccc1Cl)NC1CCN(Cc2ccccc2)CC1", "measurement_unit": "nM", "Ki": 7.28}

(I) O=C(Cc1c(F)cccc1F)NC1CCN(Cc2ccccc2)CC1
(II) O=C(Cc1ccc(C(F)(F)F)cc1)NC1CCN(Cc2ccccc2)CC1
(III) COc1ccc(CC(=O)NC2CCN(Cc3ccccc3)CC2)cc1
(IV) O=C(Cc1ccccc1Br)NC1CCN(Cc2ccccc2)CC1
Problem: Rank descending by Ki. // ordering of labels required in reply
Solution: III, II, I, IV
(III: 66.4 nM, II: 9.84 nM, I: 5.8 nM, IV: 2.89 nM)

----------
# measurement_target: Sigma non-opioid intracellular receptor 1 (Cavia porcellus)
# method_description: Binding affinity against sigma-1 receptor in guinea pig brain membranes using [3H](+)-pentazocine as the radioligand
pKi: −log10 of the molar value.
quantity_name: pKi

Guide cases for pKi, answers given:
{"smiles_code": "O=C(Cc1ccccc1C(F)(F)F)NC1CCN(Cc2ccccc2)CC1", "measurement_target": "Sigma non-opioid intracellular receptor 1 (Cavia porcellus)", "pKi": 8.06}
{"smiles_code": "COc1cc(CC(=O)NC2CCN(Cc3ccccc3)CC2)cc(OC)c1OC", "measurement_target": "Sigma non-opioid intracellular receptor 1 (Cavia porcellus)", "pKi": 7.10}

(a) O=C(Cc1ccc(O)cc1)NC1CCN(Cc2ccccc2)CC1
(b) COc1ccccc1CC(=O)NC1CCN(Cc2ccccc2)CC1
Problem: Given the listed records, identify the one among a and b with higher pKi. Write down the label attached to your selection.
Solution: b

(a) O=C(Cc1cccc(C(F)(F)F)c1)NC1CCN(Cc2ccccc2)CC1
(b) COc1ccc(NC(=O)NC2CCN(Cc3ccccc3)CC2)c(OC)c1
(c) COc1ccc(CC(=O)NC2CCN(Cc3ccccc3)CC2)cc1OC
(d) O=C(Cc1ccccc1O)NC1CCN(Cc2ccccc2)CC1
(e) COc1cc(CC(=O)NC2CCN(Cc3ccccc3)CC2)cc(OC)c1
Problem: Let's sort these by pKi, smallest first. Go ahead? // ordering of labels required in reply
Solution: c, e, b, d, a
(c: 6.45, e: 6.92, b: 7.52, d: 7.73, a: 8.41)

(1) O=C(Cc1ccccc1[N+](=O)[O-])NC1CCN(Cc2ccccc2)CC1
(2) O=C(Cc1ccc(F)cc1)NC1CCN(Cc2ccccc2)CC1
Problem: Just tell me: smaller pKi value, 1 or 2 ? Write down the label attached to your selection.
Solution: 1

----------
# measurement_target: Sigma non-opioid intracellular receptor 1 (Cavia porcellus) (UniProt Q60492)
# method_description: Binding affinity against sigma-1 receptor in guinea pig brain membranes using [3H](+)-pentazocine as the radioligand
pKi: −log10 of the molar value.
quantity_name: pKi

{"compound": "O=C(Cc1ccc(F)cc1F)NC1CCN(Cc2ccccc2)CC1", "measurement_target": "Sigma non-opioid intracellular receptor 1 (Cavia porcellus) (UniProt Q60492)", "pKi": 8.41}
{"compound": "O=C(Cc1ccc(Cl)cc1Cl)NC1CCN(Cc2ccccc2)CC1", "measurement_target": "Sigma non-opioid intracellular receptor 1 (Cavia porcellus) (UniProt Q60492)", "pKi": 8.02}
{"compound": "O=C(Cc1cccc([N+](=O)[O-])c1)NC1CCN(Cc2ccccc2)CC1", "measurement_target": "Sigma non-opioid intracellular receptor 1 (Cavia porcellus) (UniProt Q60492)", "pKi": 8.34}
{"compound": "O=C(Cc1cccc(O)c1)NC1CCN(Cc2ccccc2)CC1", "measurement_target": "Sigma non-opioid intracellular receptor 1 (Cavia porcellus) (UniProt Q60492)", "pKi": 6.96}

(A) O=C(Cc1cccc(Cl)c1)NC1CCN(Cc2ccccc2)CC1
(B) O=C(Cc1ccc([N+](=O)[O-])cc1)NC1CCN(Cc2ccccc2)CC1
Problem: Given the listed records, identify the one among A and B with higher pKi. Write down the label attached to your selection.
Solution: A
(A: 8.85, B: 7.74)

----------
# measurement_target: Sigma non-opioid intracellular receptor 1 (Cavia porcellus) (UniProt Q60492)
# method_description: Binding affinity against sigma-1 receptor in guinea pig brain membranes using [3H](+)-pentazocine as the radioligand
pKi: −log10 of the molar value.
quantity_name: pKi

Guide cases for pKi, answers given:
{"compound": "COc1cccc(C(O)CNC2CCN(Cc3ccccc3)CC2)c1OC (stereo unspecified)", "pKi": 7.49}
{"compound": "O=C(Cc1ccc(Cl)c(Cl)c1)NC1CCN(Cc2ccccc2)CC1", "pKi": 8.28}

(a) O=C(Cc1ccc2c(c1)OCO2)NC1CCN(Cc2ccccc2)CC1
(b) O=C(Cc1cccc(Br)c1)NC1CCN(Cc2ccccc2)CC1
Problem: Just tell me: smaller pKi value, a or b ? Write down the label attached to your selection.
Solution: a
(a: 8.14, b: 9.06)

(a) COc1ccc(OC)c(CC(=O)NC2CCN(Cc3ccccc3)CC2)c1
(b) O=C(Cc1ccc(F)c(F)c1)NC1CCN(Cc2ccccc2)CC1
(c) O=C(Cc1ccc([N+](=O)[O-])cc1[N+](=O)[O-])NC1CCN(Cc2ccccc2)CC1
Problem: Let's sort these by pKi, smallest first. Go ahead? // ordering of labels required in reply
Solution: a, c, b

(P) O=C(Cc1ccc(O)c(Cl)c1)NC1CCN(Cc2ccccc2)CC1
(Q) COc1cccc(CC(=O)NC2CCN(Cc3ccccc3)CC2)c1
Problem: Given the listed records, identify the one among P and Q with higher pKi. Write down the label attached to your selection.
Solution: Q

(A) Nc1ccc(CC(=O)NC2CCN(Cc3ccccc3)CC2)cc1
(B) O=C(Cc1cccc(F)c1)NC1CCN(Cc2ccccc2)CC1
(C) CSc1ccc(CC(=O)NC2CCN(Cc3ccccc3)CC2)cc1
(D) O=C(Cc1cc(F)cc(F)c1)NC1CCN(Cc2ccccc2)CC1
Problem: Rank descending by pKi. // ordering of labels required in reply
Solution: B, D, C, A
(B: 8.61, D: 8.12, C: 7.57, A: 6.33)

----------
# measurement_target: Sigma non-opioid intracellular receptor 1 (Cavia porcellus) (UniProt Q60492)
# method_description: Binding affinity against sigma-1 receptor in guinea pig brain membranes using [3H](+)-pentazocine as the radioligand
pKi: −log10 of the molar value.
quantity_name: pKi

{"smiles_code": "O=C(Cc1ccccc1Cl)NC1CCN(Cc2ccccc2)CC1", "pKi": 8.51}

(P) O=C(Cc1cc(F)ccc1F)NC1CCN(Cc2ccccc2)CC1
(Q) CSc1ccc(NC(=O)NC2CCN(Cc3ccccc3)CC2)cc1
Problem: Given the listed records, identify the one among P and Q with higher pKi. Write down the label attached to your selection.
Solution: P
